system: Endogenous Huntingtin Protein; experiment: Endogenous Huntingtin Protein Assay (Meso Scale Discovery ELISA-based electrochemiluminescence); type: cell-based; conditions: MSD electrochemiluminescence, Table 1
pIC50: −log10 of the molar value.
quantity.kind: pIC50

Return reported pIC50 for target or system Endogenous Huntingtin Protein, item COc1cc(-c2cc(F)c3cc(C4CCNCC4)nnc3c2)nc2cn(C)nc12 . ≥ 7.00

GET pIC50 | system: Endogenous Huntingtin Protein | item: Cc1cn2nc(-c3cc(F)c4cc(C5CCNCC5)nnc4c3)ccc2n1 ≥ 7.00

---

test system: Endogenous Huntingtin Protein; assay: Endogenous Huntingtin Protein Assay (Meso Scale Discovery ELISA-based electrochemiluminescence); format: cell-based; conditions: MSD electrochemiluminescence, Table 1
Listing: IC50 of selected molecules

A selection of reference data follows.
{"molecule": "Cc1nc2c(C)cc(-c3cc(F)c4nc(C5CCNCC5)nnc4c3)cc2[nH]1", "result": "≤ 100 nM"}
{"molecule": "Cc1cn2cc(-c3nnc4cc(C5CC6CCC(C5)N6)ccc4n3)cc(F)c2n1 (stereo not shown)", "result": "≤ 100 nM"}
{"molecule": "Cc1cc(-c2nnc3cc(C4CCNCC4)ccc3n2)cc2cn(C)nc12", "result": "≤ 100 nM"}

Report measured IC50; entry is Cc1cc2nc(-c3cc(F)c4cc(C5CCNCC5)nnc4c3)sc2c(C)n1 ≤ 100 nM

# return recorded IC50 for input Cc1cn2nc(-c3cc(F)c4cc(C5C[C@@H](C)N[C@@H](C)C5)nnc4c3)cc(C)c2n1 (stereo partly shown) ≤ 100 nM

Give the measured IC50 for COc1cc(-c2cc(F)c3cc(C4CCNCC4)nnc3c2)nn2cc(C)nc12 ≤ 100 nM

Tell me measured IC50 for Cc1cn2nc(-c3cc(F)c4nc(C5CCNCC5)nnc4c3)cc(C)c2n1 please. ≤ 100 nM

---

test system: Endogenous Huntingtin Protein; assay: Endogenous Huntingtin Protein Assay (Meso Scale Discovery ELISA-based electrochemiluminescence); assay type: cell-based; details: MSD electrochemiluminescence, Table 1
pIC50: −log10 of the molar value.
quantity.kind: pIC50

{"molecule": "Cc1cc(-c2cc(F)c3nc(C4CCNCC4)nnc3c2)cc2cn(C)nc12", "result": "≥ 7.00"}
{"molecule": "CC[C@H]1CC(c2cc3c(F)cc(-c4cc(C)c5nc(C)cn5n4)cc3nn2)C[C@H](CC)N1 (stereo partly shown)", "result": "≥ 7.00"}
{"molecule": "Cn1cc2cc(-c3nnc4cc(C5CCNCC5)ccc4n3)cc(C#N)c2n1", "result": "≥ 7.00"}

Quickly give me recorded pIC50 for Cc1cn2cc(-c3ccc4nc(C5CCNCC5)ccc4c3)nc(C)c2n1 6.30 to 7.00

Could you please provide reported pIC50 for CCN1CCC(c2ccc3cc(-c4ccc5nn(C)cc5c4)ccc3n2)CC1 ? Thanks! 5.52 to 6.00

# return recorded pIC50 for entry Cc1cc(-c2ccc3nc(C4CCNCC4)ncc3c2)cc2cn(C)nc12 6.30 to 7.00

Please list pIC50 recorded for the molecule Cc1cn2cc(-c3cc(F)c4cc(C5CCNCC5)nnc4c3)cc2c(C)n1 ≥ 7.00

Note pIC50 for the molecule shown: Cc1cn2cc(-c3cc(F)c4cc(C5CCNCC5)nnc4c3)cc(C#N)c2n1 ≥ 7.00

Query pIC50 for Cc1cn2nc(-c3cc(F)c4cc(N5CCNCC5)nnc4c3)cc(C)c2n1 ≥ 7.00

Give the reported value of pIC50 for this record: CCN1CCC(c2cnc3cc(-c4cc(C)c5nc(C)cn5n4)cc(F)c3n2)CC1 ≥ 7.00

Identify measured pIC50 associated with Cc1cc(-c2cc(F)c3cc(C4C[C@@H](C)N(C)[C@@H](C)C4)nnc3c2)nc2cn(C)nc12 (stereo partly shown) ≥ 7.00

Note down pIC50 recorded for Cc1cc(-c2ccc3nc(C4CCNCC4)nnc3c2)cc2cn(C)nc12 6.30 to 7.00

Return pIC50 (reported value) for this molecule: CCN1CCC(c2cc3c(F)cc(-c4nc5c(C)nc(C)cc5s4)cc3nn2)CC1 6.30 to 7.00

Look up and state reported pIC50 for Cc1cn2nc(-c3cc(F)c4cc(C5CCNCC5)nnc4c3)cc(OCCCn3ccnc3)c2n1 6.30 to 7.00

Please give measured pIC50 of the following entry: Cc1cc(-c2ccc3nc(C4CCNCC4)ccc3c2)cc2cn(C)nc12 ≥ 7.00

Determine from records and report pIC50 for Cc1cn2nc(-c3cc(F)c4cc(C5CCN(C)CC5)nnc4c3)cc(C)c2n1 ≥ 7.00

Note pIC50 for the molecule shown: Cc1cn2nc(-c3cc(F)c4cc(N5C[C@@H](C)N[C@@H](C)C5)nnc4c3)cc(C)c2n1 ≥ 7.00

Supply recorded pIC50 for Cc1cn2nc(-c3cc(F)c4cc(N5CCC(N(C)C)C5)nnc4c3)cc(C)c2n1 (stereo not shown) here. ≥ 7.00

Please give the documented pIC50 of Cc1cn2nc(-c3cc(F)c4cc(C5CCN(CCO)CC5)nnc4c3)cc(CO)c2n1 ≥ 7.00

Identify pIC50 associated with the molecule CCN1CCC(c2cc3c(F)cc(-c4cn5cc(C)nc(C)c5n4)cc3nn2)CC1 6.00 to 6.30

Recall and state the measured pIC50 for Cc1cn2nc(-c3cc(F)c4cc(C5CCNCC5)nnc4c3)cc(C)c2n1 . ≥ 7.00

Fill in reported pIC50 for this entry: Cc1cn2cc(-c3cc(F)c4cc(C5CCNCC5)nnc4c3)nc2c(C)n1 6.30 to 7.00

Read off the recorded pIC50 for Cn1cc2cc(-c3ccc4nc(C5CCNCC5)cnc4c3)cc(C(F)(F)F)c2n1 6.30 to 7.00

Supply pIC50 value. Item: CCN1CCC(c2ccc3nc(-c4ccc5nn(C)cc5c4)ccc3c2)CC1 5.52 to 6.00

State, in one line, measured pIC50 of Cc1cn2cc(-c3cc4c(F)cc(C5=CCNCC5)cc4nn3)cc(F)c2n1 ≥ 7.00

For the molecule CCN1CCC(c2cc3c(F)cc(-c4cc(C5CC5)c5nc(C)cn5n4)cc3nn2)CC1 , report pIC50. ≥ 7.00

// fetch pIC50 given entry CCN1CCC(c2cc3c(F)cc(-c4cc(C#N)c5nc(C)cn5n4)cc3nn2)CC1 ≥ 7.00

Consider the molecule Cc1cn2nc(-c3cc(F)c4cc(C5C[C@@H](C)N(C)[C@@H](C)C5)nnc4c3)cc(C)c2n1 (stereo partly shown) and give its recorded pIC50. ≥ 7.00

---

tested on: Endogenous Huntingtin Protein; assay: Endogenous Huntingtin Protein Assay (Meso Scale Discovery ELISA-based electrochemiluminescence); type: cell-based; conditions: MSD electrochemiluminescence, Table 1
pIC50: −log10 of the molar value.
# pIC50 per record follows

Fill in pIC50 for record Cc1cc(-c2ccc3nc(N(C)C4CC(C)(C)NC(C)(C)C4)ccc3c2)cc2cn(C)nc12 5.52 to 6.00

Please look at this molecule and report its pIC50: Cc1cn2nc(-c3cc(F)c4cc(C5CCN(CCN(C)C)CC5)nnc4c3)cc(C)c2n1 ≥ 7.00

Answer with the recorded pIC50 of Cc1cn2nc(-c3cc(F)c4cc(C5CCNCC5)nnc4c3)cc(C3CC3)c2n1 only. ≥ 7.00

Every entry's value here was drawn from patent US12384789B2.
